Data origin, for the record: ChEMBL document CHEMBL1135258

assayed.target: Thioesterase GrsT homolog tycF (Brevibacillus brevis) (UniProt O30412)
Sequence (O30412 as listed by the source): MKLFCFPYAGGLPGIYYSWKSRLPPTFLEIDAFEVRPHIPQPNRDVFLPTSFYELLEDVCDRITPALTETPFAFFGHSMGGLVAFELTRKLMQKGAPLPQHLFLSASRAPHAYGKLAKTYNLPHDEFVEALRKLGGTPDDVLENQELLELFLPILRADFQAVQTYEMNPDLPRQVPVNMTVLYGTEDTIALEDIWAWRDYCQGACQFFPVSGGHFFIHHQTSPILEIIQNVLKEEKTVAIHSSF
assay: Apparent kinetic constant (Kcat) for tyrocidine thioesterase amplified from Bacillus brevis (ATCC8185)
Readings of k cat for the listed compounds
Give just the numeric value; s⁻¹ need not be written.

Worked cases, k cat given:
input.smiles | assayed.target | k cat / s⁻¹
CC(=O)NCCSC(=O)[C@H](CC(C)C)NC(=O)[C@H](CCCN)NC(=O)[C@@H](NC(=O)[C@H](Cc1ccc(O)cc1)NC(=O)[C@H](CCC(N)=O)NC(=O)[C@H](CC(N)=O)NC(=O)[C@H](Cc1ccccc1)NC(=O)[C@H](Cc1ccccc1)NC(=O)[C@@H]1CCCN1C(=O)[C@H](N)Cc1ccccc1)C(C)C | Thioesterase GrsT homolog tycF (Brevibacillus brevis) (UniProt O30412) | 0.105
CC(=O)NCCSC(=O)[C@H](CC(C)C)NC(=O)[C@H](CCCN)NC(=O)[C@@H](NC(=O)[C@H](Cc1ccc(O)cc1)NC(=O)[C@H](CCC(N)=O)NC(=O)[C@H](CC(N)=O)NC(=O)[C@H](CC(C)C)NC(=O)[C@H](Cc1ccccc1)NC(=O)[C@@H]1CCCN1C(=O)[C@H](N)Cc1ccccc1)C(C)C | Thioesterase GrsT homolog tycF (Brevibacillus brevis) (UniProt O30412) | 0.138

Note k cat for the compound shown: "CC(=O)NCCSC(=O)[C@H](CC(C)C)NC(=O)[C@H](CCCN)NC(=O)[C@@H](NC(=O)[C@H](Cc1ccc(O)cc1)NC(=O)[C@H](CCC(N)=O)NC(=O)[C@H](CC(N)=O)NC(=O)[C@H](Cc1ccc(O)cc1)NC(=O)[C@H](Cc1ccccc1)NC(=O)[C@@H]1CCCN1C(=O)[C@H](N)Cc1ccccc1)C(C)C"
0.183
